This listing pairs sequences with measured apparent KD of K4 kissing-loop reporter.
test system: K4 kissing-loop RNA reporter; experiment: apparent KD of K4 kissing-loop reporter; higher = weaker reporter binding; conditions: Eterna round: R107; input ligand: arginine 13.2 mM
measurement label: apparent KD of K4 kissing-loop reporter (nM)

>>> endpoint_result("UGCGGUAGUGAUGUUACCUCAUUAUACUAGCGAGGACCGGUACGGCCGCCACUCGACUUCCUCCACGCCUAGGCCUCUACGUUCA [theeternabot_sameState_KL_Trp_A_36]")
122
>>> endpoint_result("UAGCAUUUGCUCGAGUGAUGUUCGAGCGAAGGAGCGCGAGAAAUCGCAGGUAGGUCGCGCUCGAACUAUGAGCGAUCAUUUAUUA [Arg A Ex t2c]")
217
>>> endpoint_result("GGAGCUACCUGGGAUACCAGUCGGAGUCUCAGAGCUCGGAGUGAUGUUCUGGGAUGUUUCGGCCCUUGGCAGCUCUGGGACUCCU [#2 Exclusion - Theophylline B Attempt #18 (HarryS)]")
749
>>> endpoint_result("ACUGGGUUGACGAAAGUCAACAAAAGAGAAGGAGCGCACGAAAGUGCAGGUAGGUCGCUCAUCCAGUGAUGUUGGAUCAUCCAGA [#SwitchBubble 17 #K4Late]")
679
>>> endpoint_result("GGAUAGGACAGAGGAUAUCCUGAGUCUACAAAGUAGGCUCAUAAAGGAUGAAUCCUAGUGAUGUUAGGAGAAGGCUGUCCUAUCG [FmnBX 16 - #SwitchBubble #StaticStem #Palindromic]")
84.6

----------
test system: MS2 coat protein; experiment: apparent KD of MS2 coat protein; higher = weaker reporter binding; details: Eterna round: R107; input ligand: none
measurement label: apparent KD of MS2 coat protein (nM)

>>> endpoint_result("GUCCUAGCGAGCGCUCGCUAGGACGCGGAUACCAGCGAGGUCCAUCGCCCUUGGCAGCCGAACAUGAGGAUCACCCAUGUCGGUA [#1 Same State - Theophylline A Attempt #16 (HarryS)]")
11.6
>>> endpoint_result("AUAUUUAACGGAAGGAGCGCGGAUAAUAAAGUGGGUAAACAUGAGGAUCACCCAUGUAAACCGCAGGUAGGUCGCCGAUAUAUAU [AstrosEXyARgB#7]")
63.6
>>> endpoint_result("GUAUAGUCUCGAAGGAGCGUCACAUGAGGAUCACCCAUGUACAUGAGGAUCACCCAUGUGUGGCAGGUAGGUCGCGAGCUAUACC [Exclusion Arginine B GF8]")
265
>>> endpoint_result("AAAACAAACUCGGCCGCCACUCCCUCCCACCCAAGGACAUGAGGAUCACCCAUGUGGCAAAGCCCGAGGACCGGGAGAAACAAAA [Same State - Trytophan B]")
22.2
>>> endpoint_result("AUGGCGUUGGUGAGGCGGUUUAAUGGCGAUACCAGCGUGGAAACACGCCCUUGGCAGCGCCAAAACAUGAGGAUCACCCAUGUUA [Budejovice]")
13.4
>>> endpoint_result("AAUUGGCACUGAAGGAGCGAGUUUACCUAAAUAACAUGAGGAUCACCCAUGUAAAAUGGGACUCAGGUAGGUCGCAGUUGUCAAA [Same State Arginine B GF 22]")
57.6

----------
test system: MS2 coat protein; experiment: apparent KD of MS2 coat protein; designed switch direction (-1 OFF switch, 1 ON switch): -1; higher = weaker reporter binding; settings: input ligand: FMN 200 uM
Labels assigned by apparent KD of MS2 coat protein range: interval 1: < 20 nM; interval 2: ≥ 20 nM and < 100 nM; interval 3: ≥ 100 nM

>>> label("AGAGUGGUGCGAGGAUAUACAUGAGGAUCACCCAUGUAAACGUGUGAGGCAAAGCCUCACACGAUGUAGAAGGCGCACUACUCA [Mat - Exclusion NG 2 - Mod of JL - D15] (Eterna round: R96, puzzle: Exclusion NG 2)")
"interval 1"
>>> label("GAGUUACAUGAGGAUCACCCAUGUGAGGAUAUGAGUCAGUCACGGUGACGUGGCUGACUCAGAAGGCACAAUGG [Mat - Exclusion 1 - JL Mod - D46] (Eterna round: R97, puzzle: Exclusion 1)")
"interval 3"
>>> label("CCUCCCUGAGGAUAUCCACCCUCAUACAUGAGGAUCACCCAUGUUCAACCCUGGGUUCCCGGAGAAGGCAGUUUCC [Megrez-2.4] (Eterna round: R97, puzzle: Exclusion 5)")
"interval 3"
>>> label("GCCCGGGCAGGAUAUACAAUGAGCUUGAGAAAUCGAGUUCGACAUGAGGAUCACCCAUGUAGAAGGGCCCGGGC [-37.4, -35.1 kcal, A 28% 1] (Eterna round: R97, puzzle: Exclusion 2)")
"interval 2"
>>> label("GUUAACGUAGGAUAUUAGUACAUACACAUGAGGAUCACCCAUGUUUAGUGGGUCUAAGAAUAAGAAGGGCGAAGAA [EX5 #25] (Eterna round: R97, puzzle: Exclusion 5)")
"interval 3"
>>> label("AUGACAGGACAUGAGGAUCACCCAUGUACACGACCAAUGACCGAGGAUAUCGAUUGCAUGCAGGUCGAGAAGGCGGAGUAUCCA [Eternabot solution 3] (Eterna round: R96, puzzle: Exclusion NG 3)")
"interval 1"
>>> label("AAAUAGCUAGAGGAUAUCGGAUAGGAUUUAUUACGAGAAGGUUAGACAUGAGGAUCACCCAUGUUCUGUUGGGA [EX6 #21] (Eterna round: R97, puzzle: Exclusion 6)")
"interval 2"
>>> label("AGUCGGAAGACAAAAGGAAACAUGAGGAUCACCCAUGUAAAGGGUGAAAACAAGCCACCCGCUCGUCUUAAAGAAAA [Mat - Sensor v2- JL mod - D44] (Eterna round: R96, puzzle: Sensor v2, turn-off variant)")
"interval 2"
>>> label("GCCGAAAGUGUGAGGAUAUACCUAUGGAAACAUAGGUAGAAGGCACAUGAGGAUCACCCAUGUGUUUCAACGGC [Mat - Exclusion 4 - Eli Mod - D20] (Eterna round: R97, puzzle: Brourd's mod of Exclusion 4)")
"interval 2"

----------
This listing pairs sequences with measured apparent KD of MS2 coat protein.
test system: MS2 coat protein; assay: apparent KD of MS2 coat protein; designed switch direction (-1 OFF switch, 1 ON switch): -1; higher = weaker reporter binding; details: input ligand: FMN 200 uM
measurement label: apparent KD of MS2 coat protein

>>> endpoint_result("GUCAUCAAACAUGGGAUAAACAUGAGGAUCACCCAUGUUUACAAGUUUUUUGCUCGUCUUAUAAUAAGUUUGAUGAC [Antenna 8 - Jieux - Sensor, turn-off variant 1] (Eterna round: R97, puzzle: Sensor, turn-off variant 1)")
"14 nM"
>>> endpoint_result("ACAUGAGGAUCACCCAUGUGACCACAAUGGCUGAUGUAACGACAGGAUAUGCGUGAAUAUCUAACGCAGAAGGGUCAUGACUGG [Deportation 61 - Jieux - Exclusion NG 3] (Eterna round: R96, puzzle: Exclusion NG 3)")
"62.8 nM"
>>> endpoint_result("UGAAGUAGAGGAUAUACGUGGAAAUAGAUUCAUGUAAAACUACAUGAGGAUCACCCAUGUAGAAGGCUAUAGAU [JR_Ex2_Sub072] (Eterna round: R97, puzzle: Exclusion 2)")
"28.4 nM"
>>> endpoint_result("AUCAGCUCGUCAGGAUAUGAACAUGAGGAUCACCCAUGUAAGAUCAAGCUGCUUCGGCAGCAAGUUCAGAAGGGACGAGCUGAU [ENG2/10-B3] (Eterna round: R96, puzzle: Exclusion NG 2)")
"169 nM"

----------
system: K4 kissing-loop RNA reporter; assay: apparent KD of K4 kissing-loop reporter; higher = weaker reporter binding; conditions: Eterna round: R107; input ligand: tryptophan 2.4 mM;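 also: bound reporter read as fluorescence of individual clusters on recovered sequencing chips by microscopy, with normalized cluster intensities fitted with a binding model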
Entry flag: True if apparent KD of K4 kissing-loop reporter reaches 0.4 µM; False if it does not.

>>> label("CCGCGGCAAGCUCCGGAACCCAUAUUCGAUACCAGCCUUAUCACGGGCCCUUGGCAGCGAGCGUUAGUGAUGUUAGCGGCAUGGU [theeternabot_sameState_KL_Theo_A_27]")
"False"
>>> label("GCGAUUCAGUGAUGUUGGAAAUACAGGGAUACCAGCCGAAAAUAAGGCCCUUGGCAGCUUAAUAGGAAAGAACUAAGAAAGACGC [Theophylline A Same State; Euphoria Solution 3]")
"True"
>>> label("GCCGUAGAUUGAAGGAGCGGACAGAUACGGGAAUCCAGUGAUGUUGGAAGGUAACUACUAGUCCAGGUAGGUCGCAAUCUACGGC")
"False"
>>> label("UAUUGAGUGAUGUUCGAUAACCAAUCAGAUACCAGUUUUGUAGAAAACCCUUGGCAGCUGCUCAGCUCUAUAAUGCUUCGCCCUU [theeternabot_sameState_KL_Theo_A_18]")
"False"
>>> label("GCAUAUACGAGAAGGAGCGUGCAUGACGAAUUAAUCAUCGACCUUAGUGAUGUUAAGGACGCACAGGUAGGUCGCUCGUGUAUGC [#04 K4 Arginine B Same State]")
"False"
